Each entry below carries its recorded relative viability.
- System: SW1353
- assay details: relative viability vs DMSO control (72 h) (fraction); higher = more viable cells
- measurement setup: 0.00051 µM

{"compound": "CC1(COc2ccc3c(c2)ncn3-c2ccc3cccc(N4CCC(N)CC4)c3n2)COC1 [Crenolanib]", "relative viability": 0.959}
{"compound": "N#CCNC(=O)c1ccc(-c2ccnc(Nc3ccc(N4CCOCC4)cc3)n2)cc1 [Momelotinib]", "relative viability": 1.05}
{"compound": "O=c1sn(-c2cccc3ccccc23)c(=O)n1Cc1ccccc1 [Tideglusib]", "relative viability": 1.05}

* * *

- Tested on: HT1080
- assay details: relative viability vs DMSO control (72 h) (fraction); higher = more viable cells
- measurement setup: 0.3704 µM
Each entry below carries its recorded relative viability.

{"compound": "CN1CCN(c2ccc(C(=O)Nc3n[nH]c4ccc(Cc5cc(F)cc(F)c5)cc34)c(NC3CCOCC3)c2)CC1", "relative viability": 1.06}
{"compound": "N#CCNC(=O)c1ccc(-c2ccnc(Nc3ccc(N4CCOCC4)cc3)n2)cc1", "relative viability": 1.17}
{"compound": "COc1cc(CCc2cc(NC(=O)c3ccc(N4CC(C)NC(C)C4)cc3)n[nH]2)cc(OC)c1 (stereo not given)", "relative viability": 1.08}
{"compound": "C[C@H](Nc1ncnc2nc[nH]c12)c1cc2cccc(Cl)c2c(=O)n1-c1ccccc1", "relative viability": 1.14}
{"compound": "CN1CC[C@@H](NC(=O)Nc2ccc(C#N)cc2)C[C@@H]1c1nc2ccccc2[nH]1", "relative viability": 1.09}

* * *

- System: A204
- assay details: standardised AUC of viability dose-response curve (72 h) (fraction (0-1)); higher = less growth inhibition (more resistant)

{"smiles structure": "Cc1[nH]c(/C=C2\\C(=O)Nc3ccc(F)cc32)c(C)c1C(=O)NCCN1CCCC1", "standardised AUC": 0.669}
{"smiles structure": "COc1cc(Nc2ncc(F)c(Nc3ccc4c(n3)N(COP(=O)(O)O)C(=O)C(C)(C)O4)n2)cc(OC)c1OC", "standardised AUC": 0.774}
{"smiles structure": "C[C@H](Nc1ncnc2nc[nH]c12)c1cc2cccc(Cl)c2c(=O)n1-c1ccccc1", "standardised AUC": 0.864}
{"smiles structure": "CC1(C)CC=C(c2nc(C3CC(C)(C)OC(C)(C)C3)ccc2NC(=O)c2nc(C#N)c[nH]2)CC1", "standardised AUC": 0.985}
{"smiles structure": "O=C(Nc1nc2cccc(-c3ccc(CN4CCS(=O)(=O)CC4)cc3)n2n1)C1CC1", "standardised AUC": 0.985}
{"smiles structure": "Clc1ccc(Nc2nnc(Cc3ccncc3)c3ccccc23)cc1", "standardised AUC": 0.864}

* * *

- System: SW982
- assay details: relative viability vs DMSO control (72 h) (fraction); higher = more viable cells
- measurement setup: 0.1235 µM
Strictly below 1 in relative viability: 1.0. Otherwise: 0.0.

{"smiles structure": "Cc1cc2cc(Oc3ccnc(Nc4cccc(CS(=O)(=O)NCCN(C)C)c4)n3)ccc2[nH]1", "class label": 0.0}
{"smiles structure": "COc1cc(OC)c(/C=C/S(=O)(=O)Cc2ccc(OC)c(NCC(=O)O)c2)c(OC)c1", "class label": 1.0}
{"smiles structure": "CC(C)(O)CNc1nc(Nc2ccnc(C(F)(F)F)c2)nc(-c2cccc(C(F)(F)F)n2)n1", "class label": 0.0}
{"smiles structure": "CO[C@H]1C[C@@H]2CC[C@@H](C)[C@@](O)(O2)C(=O)C(=O)N2CCCC[C@H]2C(=O)O[C@H]([C@H](C)C[C@@H]2CC[C@@H](OCCO)[C@H](OC)C2)CC(=O)[C@H](C)/C=C(\\C)[C@@H](O)[C@@H](OC)C(=O)[C@H](C)C[C@H](C)/C=C/C=C/C=C/1C", "class label": 1.0}
{"smiles structure": "CC1(C)CC=C(c2nc(C3CC(C)(C)OC(C)(C)C3)ccc2NC(=O)c2nc(C#N)c[nH]2)CC1", "class label": 0.0}
{"smiles structure": "O=c1sn(-c2cccc3ccccc23)c(=O)n1Cc1ccccc1", "class label": 0.0}
{"smiles structure": "CC1(COc2ccc3c(c2)ncn3-c2ccc3cccc(N4CCC(N)CC4)c3n2)COC1", "class label": 1.0}

* * *

- System: HT1080
- assay details: relative viability vs DMSO control (72 h) (fraction); higher = more viable cells
- measurement setup: 3.333 µM
Each entry below carries its recorded relative viability.

{"compound": "Cn1cc(C2=C(c3cn(C4CCN(Cc5ccccn5)CC4)c4ccccc34)C(=O)NC2=O)c2ccccc21 [Enzastaurin]", "relative viability": 1.37}
{"compound": "CNC(=O)c1nnc(NC(=O)C2CC2)cc1Nc1cccc(-c2ncn(C)n2)c1OC", "relative viability": 1.11}
{"compound": "CC[C@@H]1CN(C(=O)NCC(F)(F)F)C[C@@H]1c1cnc2cnc3[nH]ccc3n12 [Upadacitinib]", "relative viability": 1.01}
{"compound": "CC#CC(=O)N1CCC[C@H]1c1nc(-c2ccc(C(=O)Nc3ccccn3)cc2)c2c(N)nccn12 [Acalabrutinib]", "relative viability": 1.08}
{"compound": "O=C(Nc1ccc(OC(F)(F)Cl)cc1)c1cnc(N2CC[C@@H](O)C2)c(-c2cc[nH]n2)c1 [Asciminib]", "relative viability": 0.978}
{"compound": "Cc1cccc(-c2nn3c(c2-c2ccnc4ccc(C(N)=O)cc24)CCC3)n1 [Galunisertib]", "relative viability": 1.03}

* * *

- System: SW1353
- assay details: relative viability vs DMSO control (72 h) (fraction); higher = more viable cells
- measurement setup: 1.111 µM
endpoint name: relative viability

{"compound": "CC1(C)CC=C(c2nc(C3CC(C)(C)OC(C)(C)C3)ccc2NC(=O)c2nc(C#N)c[nH]2)CC1 [Edicotinib]", "endpoint name": "relative viability", "value reported": 1.09}
{"compound": "CN1CCN(c2ccc(C(=O)Nc3n[nH]c4ccc(Cc5cc(F)cc(F)c5)cc34)c(NC3CCOCC3)c2)CC1 [Entrectinib]", "endpoint name": "relative viability", "value reported": 0.953}
{"compound": "Cn1ncnc1[C@H]1c2n[nH]c(=O)c3cc(F)cc(c23)N[C@@H]1c1ccc(F)cc1 [Talazoparib]", "endpoint name": "relative viability", "value reported": 0.753}
{"compound": "COc1cc(CCc2cc(NC(=O)c3ccc(N4CC(C)NC(C)C4)cc3)n[nH]2)cc(OC)c1 (centres undefined) [AZD-4547]", "endpoint name": "relative viability", "value reported": 0.821}

* * *

- Test system: KHOS-240S
- assay details: relative viability vs DMSO control (72 h) (fraction); higher = more viable cells
- measurement setup: 0.01372 µM

{"smiles structure": "Cn1cc(C2=C(c3cn(C4CCN(Cc5ccccn5)CC4)c4ccccc34)C(=O)NC2=O)c2ccccc21", "relative viability": 1.1}
{"smiles structure": "CC[C@@H]1CN(C(=O)NCC(F)(F)F)C[C@@H]1c1cnc2cnc3[nH]ccc3n12", "relative viability": 1.08}
{"smiles structure": "CN1CCN(c2ccc(C(=O)Nc3n[nH]c4ccc(Cc5cc(F)cc(F)c5)cc34)c(NC3CCOCC3)c2)CC1", "relative viability": 1.08}
{"smiles structure": "CCC(=O)N1CC[C@H](Nc2ncnc3c2CN(c2cnc(OC)c(C(F)(F)F)c2)CC3)C1", "relative viability": 1.05}
{"smiles structure": "COCCNc1cc(NC(=O)N2CCCc3cc(CN4CCN(C)CC4=O)c(C=O)nc32)ncc1C#N", "relative viability": 1.02}

* * *

- Test system: SW872
- assay details: relative viability vs DMSO control (72 h) (fraction); higher = more viable cells
- measurement setup: 1.111 µM
Strictly below 0.9 in relative viability: YES. Otherwise: NO.

{"compound": "N#CC1(c2ccc(NC(=O)c3cccnc3NCc3ccncc3)cc2)CCCC1 [Apatinib]", "class label": "NO"}
{"compound": "CC1(COc2ccc3c(c2)ncn3-c2ccc3cccc(N4CCC(N)CC4)c3n2)COC1 [Crenolanib]", "class label": "NO"}
{"compound": "COCCNc1cc(NC(=O)N2CCCc3cc(CN4CCN(C)CC4=O)c(C=O)nc32)ncc1C#N [Roblitinib]", "class label": "NO"}
{"compound": "C[C@]12O[C@H](C[C@]1(O)CO)n1c3ccccc3c3c4c(c5c6ccccc6n2c5c31)CNC4=O [Lestaurtinib]", "class label": "YES"}

* * *

Each entry below carries its recorded relative viability.
- System: KHOS-NP
- assay details: relative viability vs DMSO control (72 h) (fraction); higher = more viable cells
- measurement setup: 0.00051 µM
endpoint name: relative viability

{"molecule": "Cc1cc2cc(Oc3ccnc(Nc4cccc(CS(=O)(=O)NCCN(C)C)c4)n3)ccc2[nH]1", "endpoint name": "relative viability", "value reported": 1.05}
{"molecule": "CC#CC(=O)N1CCC[C@H]1c1nc(-c2ccc(C(=O)Nc3ccccn3)cc2)c2c(N)nccn12", "endpoint name": "relative viability", "value reported": 1.03}
{"molecule": "N#CC1(c2ccc(NC(=O)c3cccnc3NCc3ccncc3)cc2)CCCC1", "endpoint name": "relative viability", "value reported": 1.04}
{"molecule": "Cn1cc(C2=C(c3cn(C4CCN(Cc5ccccn5)CC4)c4ccccc34)C(=O)NC2=O)c2ccccc21", "endpoint name": "relative viability", "value reported": 1.13}
{"molecule": "CCC(=O)N1CC[C@H](Nc2ncnc3c2CN(c2cnc(OC)c(C(F)(F)F)c2)CC3)C1", "endpoint name": "relative viability", "value reported": 1.11}
{"molecule": "COCCNc1cc(NC(=O)N2CCCc3cc(CN4CCN(C)CC4=O)c(C=O)nc32)ncc1C#N", "endpoint name": "relative viability", "value reported": 1.03}
{"molecule": "CN1CC[C@@H](NC(=O)Nc2ccc(C#N)cc2)C[C@@H]1c1nc2ccccc2[nH]1", "endpoint name": "relative viability", "value reported": 1.1}
{"molecule": "COc1cc(CCc2cc(NC(=O)c3ccc(N4CC(C)NC(C)C4)cc3)n[nH]2)cc(OC)c1 (centres undefined)", "endpoint name": "relative viability", "value reported": 1.1}
{"molecule": "CCc1cnn2c(NCc3ccc[n+]([O-])c3)cc(N3CCCC[C@H]3CCO)nc12", "endpoint name": "relative viability", "value reported": 1.05}

Ref: the supplement of paper PMC10883282
